Overview of reported logP across a group of molecules:
assay: logP determination via retention times, calibrated with unbranched alkan-2-ones; format: physicochemical; settings: method *: HPLC reversed-phase C 18, temperature 40° C.; mobile phase 0.1% aqueous formic acid and acetonitrile; linear gradient 10% to 95% acetonitrile

{"chem-smiles": "COc1cc(Nc2ncc(C(F)(F)F)c(NC3CC3)n2)ccc1NC(C)=O", "result": "1.85*"}
{"chem-smiles": "Cc1cnc(Nc2cccc(N3CCCC3=O)c2)nc1NC1CC1", "result": "1.14*"}
{"chem-smiles": "Fc1cc(F)cc(Nc2ncc(Br)c(NC3CC3)n2)c1", "result": "3.35*"}
{"chem-smiles": "COc1cc(Nc2ncc(C(F)(F)F)c(NC3CC3)n2)ccc1F", "result": "2.99*"}

--- query ---
Check the records and state logP for CCOC(=O)Nc1ccc(Nc2ncc(F)c(NC3CC3)n2)cc1
1.46*
